Assay Remarks: Solubility of compounds in sodium chloride solution
Type: physicochemical
Experimental Setup: saline or isotonic, thermodynamic from solid; 0.12% NaCl solution, ambient temperature; read-out: S1 = Solubility in 0.12% NaCl Solution
Measured Endpoint: solubility

>>> df
                              smiles_string  value_measured
0  CS(=O)(=O)O.CS(=O)(=O)O.N=C(NCCCCc1ccc(C(=O)N2CCNCC2)cc1)NC(=O)c1nc(Cl)c(N)nc1N    > 5000 µg/mL

###

We begin with a simple list: items and their reported pIC50.
Target Entity: ENaC (epithelial sodium channel) (Canis lupus familiaris, UniProt A0A8I3MKE6+A0A8I3Q679+Q95165)
Construct: endogenous in cells; host or cells: primary canine bronchial (airway) epithelial cells cultured at air-liquid interface, mounted in Ussing chambers
Sequence (A0A8I3Q679 1-649): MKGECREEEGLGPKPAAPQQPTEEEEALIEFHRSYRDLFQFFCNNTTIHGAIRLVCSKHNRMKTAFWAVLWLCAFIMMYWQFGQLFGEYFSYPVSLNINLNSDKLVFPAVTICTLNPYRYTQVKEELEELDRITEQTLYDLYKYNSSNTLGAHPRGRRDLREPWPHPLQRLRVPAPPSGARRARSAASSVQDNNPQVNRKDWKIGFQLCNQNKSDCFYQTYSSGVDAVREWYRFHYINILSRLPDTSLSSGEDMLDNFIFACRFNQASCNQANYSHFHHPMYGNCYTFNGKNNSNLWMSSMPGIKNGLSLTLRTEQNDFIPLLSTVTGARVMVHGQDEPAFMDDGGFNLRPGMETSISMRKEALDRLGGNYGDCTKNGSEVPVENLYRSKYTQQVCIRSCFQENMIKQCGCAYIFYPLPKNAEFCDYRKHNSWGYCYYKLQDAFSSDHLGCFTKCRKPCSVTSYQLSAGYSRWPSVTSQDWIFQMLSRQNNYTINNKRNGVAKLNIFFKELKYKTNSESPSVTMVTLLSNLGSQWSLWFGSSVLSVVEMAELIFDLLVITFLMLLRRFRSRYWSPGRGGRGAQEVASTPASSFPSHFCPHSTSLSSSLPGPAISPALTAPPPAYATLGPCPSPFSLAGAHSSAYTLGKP
Sequence (Q95165 1-641): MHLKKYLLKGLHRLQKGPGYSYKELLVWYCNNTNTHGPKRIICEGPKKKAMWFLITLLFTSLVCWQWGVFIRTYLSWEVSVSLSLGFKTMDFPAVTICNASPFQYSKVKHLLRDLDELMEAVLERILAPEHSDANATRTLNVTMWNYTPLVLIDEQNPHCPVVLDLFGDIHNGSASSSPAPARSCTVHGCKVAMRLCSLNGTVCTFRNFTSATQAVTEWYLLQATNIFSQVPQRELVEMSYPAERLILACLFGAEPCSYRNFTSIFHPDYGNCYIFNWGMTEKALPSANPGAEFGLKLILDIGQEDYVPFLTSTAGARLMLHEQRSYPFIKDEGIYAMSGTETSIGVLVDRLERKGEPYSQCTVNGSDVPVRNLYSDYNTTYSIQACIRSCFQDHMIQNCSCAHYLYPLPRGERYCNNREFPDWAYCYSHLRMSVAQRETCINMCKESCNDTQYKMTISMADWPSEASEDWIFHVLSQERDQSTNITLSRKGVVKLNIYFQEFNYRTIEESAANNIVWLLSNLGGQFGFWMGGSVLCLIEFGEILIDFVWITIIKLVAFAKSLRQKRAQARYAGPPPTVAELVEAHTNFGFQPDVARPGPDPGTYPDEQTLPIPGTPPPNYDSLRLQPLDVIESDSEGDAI
Sequence (A0A8I3MKE6 1-646): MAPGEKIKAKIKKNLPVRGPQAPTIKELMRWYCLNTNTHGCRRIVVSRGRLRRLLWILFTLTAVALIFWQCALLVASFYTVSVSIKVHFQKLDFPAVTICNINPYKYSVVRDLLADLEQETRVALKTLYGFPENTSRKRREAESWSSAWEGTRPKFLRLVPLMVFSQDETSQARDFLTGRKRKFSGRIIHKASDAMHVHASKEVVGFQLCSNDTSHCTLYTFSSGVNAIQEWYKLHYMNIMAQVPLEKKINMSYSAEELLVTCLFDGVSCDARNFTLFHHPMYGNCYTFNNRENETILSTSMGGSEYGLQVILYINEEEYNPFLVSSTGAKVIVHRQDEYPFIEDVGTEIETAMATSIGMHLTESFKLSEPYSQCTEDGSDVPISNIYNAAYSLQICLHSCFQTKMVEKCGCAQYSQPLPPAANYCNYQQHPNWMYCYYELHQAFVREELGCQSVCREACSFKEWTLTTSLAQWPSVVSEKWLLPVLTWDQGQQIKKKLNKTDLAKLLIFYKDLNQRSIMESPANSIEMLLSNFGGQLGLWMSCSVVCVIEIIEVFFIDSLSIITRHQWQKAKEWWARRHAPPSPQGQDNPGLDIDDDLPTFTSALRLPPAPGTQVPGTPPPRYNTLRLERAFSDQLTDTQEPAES
Assay Remarks: Epithelial sodium channel blocking activity (short circuit current, Ussing chambers) in canine bronchial epithelium
Assay type: cell-based
pIC50: −log10 of the molar value.
Measured Endpoint: pIC50

                                   compound  value_measured
0  CS(=O)(=O)O.CS(=O)(=O)O.N=C(NCCCCc1ccc(C(=O)N2CCNCC2)cc1)NC(=O)c1nc(Cl)c(N)nc1N [PSA23607, bis-methanesulfonate]            7.90
1  N=C(NCCCCc1ccc(OCC(N)=O)cc1)NC(=O)c1nc(Cl)c(N)nc1N            7.82
2  N=C(NCCCCc1ccc(OCC(=O)NCCN)cc1)NC(=O)c1nc(Cl)c(N)nc1N            8.30
